test system: ATS189; test: qHTS profiling for inhibitors of Plasmodium falciparum proliferation (AID 504749); note: nearly all actives have a fitted effect of over 60% in size; settings: P. falciparum in erythrocytes, SYBR Green DNA, 72 h; series mostly up to 28.7 µM
Records with an inconclusive call do not appear. Calls of active or inactive are those of the source. Calls come from the whole dose curve; as a rule, active = well fitted inhibition curve with a large enough effect; inconclusive = small, poorly fitted or top-dose-only effect; inactive = flat fitted curve, though single readings scatter.
OBSERVED PROPERTY: outcome

Tested on ATS189: NS(=O)(=O)c1ccc(Cl)c(S(N)(=O)=O)c1 . Observed outcome: inactive

Tested on ATS189: COc1ccc(-c2cc(C(F)F)nn2-c2ccc(S(N)(=O)=O)cc2)cc1F . Observed outcome: inactive

Tested on ATS189: NC(=O)n1c(O)c(C(=O)c2cccs2)c2cc(Cl)ccc21 . Observed outcome: inactive

====

system: CP268; assay: qHTS profiling for inhibitors of Plasmodium falciparum proliferation (AID 504749); note: nearly all actives have a fitted effect of over 60% in size; settings: P. falciparum in erythrocytes, SYBR Green DNA, 72 h; series mostly up to 28.7 µM
Results filed as inconclusive are left out. The source made the active and inactive calls. Calls come from the whole dose curve; as a rule, active = well fitted inhibition curve with a large enough effect; inconclusive = small, poorly fitted or top-dose-only effect; inactive = flat fitted curve, though single readings scatter.
I would appreciate it if you answered using one of these outcomes: active, inactive

Exercise: Hi, do you know how Nc1ccc(S(=O)(=O)NCc2ccccc2)cc1 came out in this test?
Solution: inactive

Exercise: Hi, do you know how COc1ccc(-c2cc(C(F)F)nn2-c2ccc(S(N)(=O)=O)cc2)cc1F came out in this test?
Solution: inactive

Exercise: Hi, do you know how CC(=O)OC[C@H]1O[C@@H](n2ncc(=O)[nH]c2=O)[C@H](OC(C)=O)[C@@H]1OC(C)=O came out in this test?
Solution: inactive

Exercise: Hi, do you know how CCNC(=O)/C=C/c1cccc(Br)c1 came out in this test?
Solution: inactive

Exercise: Hi, do you know how CCN(CC)CCNc1ccc(CO)c2sc3ccccc3c(=O)c12 came out in this test?
Solution: active

Exercise: Hi, do you know how CCc1oc2ccccc2c1C(=O)c1cc(I)c(O)c(I)c1 came out in this test?
Solution: inactive

Exercise: Hi, do you know how CC(=O)NCCCCCC(=O)O came out in this test?
Solution: inactive

Exercise: Hi, do you know how O[C@@H](c1cc(C(F)(F)F)nc2c(C(F)(F)F)cccc12)[C@H]1CCCCN1 came out in this test?
Solution: active

====

system: 7G8; assay: qHTS profiling for inhibitors of Plasmodium falciparum proliferation (AID 504749); note: nearly all actives have a fitted effect of over 60% in size; settings: P. falciparum in erythrocytes, SYBR Green DNA, 72 h; series mostly up to 28.7 µM
Records with an inconclusive call do not appear. Calls of active or inactive are those of the source. Calls follow the shape of the dose curve; as a rule, active = well fitted inhibition curve with a large enough effect; inconclusive = small, poorly fitted or top-dose-only effect; inactive = flat fitted curve, though single readings scatter.
I would appreciate it if you answered using one of these outcomes: active, inactive

Exercise: Hi, do you know how Cc1cccc(C)c1NC(=O)CN1CCCC1 came out in this test?
Solution: inactive

Exercise: Hi, do you know how CCCCCCCC/C=C\CCCCCCCCN came out in this test?
Solution: inactive

Exercise: Hi, do you know how Nc1ccc(C(=O)NCC(=O)O)cc1 came out in this test?
Solution: inactive

Exercise: Hi, do you know how COC(=O)C(c1ccccc1Cl)N1CCc2sccc2C1 (stereo unspecified) came out in this test?
Solution: active

Exercise: Hi, do you know how COc1cc(C(=O)N2CCCCCCC2)cc(OC)c1OC came out in this test?
Solution: inactive

Exercise: Hi, do you know how CN(Cc1ccc(C(C)(C)C)cc1)Cc1cccc2ccccc12 came out in this test?
Solution: active

The reported measurements were obtained from PubChem BioAssay (NCATS).
